- study target: glutathione-S-transferase (GST) tagged LXRbeta LBD (ligand binding domain) (Homo sapiens)
- Construct: purchased Invitrogen pv4658.pps
- Sequence (P55055 222-460 limits assumed): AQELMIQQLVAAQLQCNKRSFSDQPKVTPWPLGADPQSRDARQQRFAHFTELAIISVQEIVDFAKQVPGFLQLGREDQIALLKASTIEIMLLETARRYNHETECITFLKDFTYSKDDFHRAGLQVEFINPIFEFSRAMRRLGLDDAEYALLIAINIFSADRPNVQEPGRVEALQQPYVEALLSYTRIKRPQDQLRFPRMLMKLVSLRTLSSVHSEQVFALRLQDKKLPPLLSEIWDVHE
- protocol text: LanthaScreen TR-FRET Liver X Receptor Coactivator Assay, co-activator recruitment to LXRbeta LBD
- Assay type: biochemical
- condition label: efficacy at max dose, in relation to reference dual agonist T0901317
measurement name: LXR beta Activity @ max dose (%)

Examples with answers:
{"columns": ["molecule", "study target", "measurement name", "meas value"],
 "data": [
  ["COc1cccc([C@@](O)(C(=O)N2CCC(CC3CCN(c4ccc(C(=O)N(C)C)c(C)n4)CC3)CC2)C(F)(F)F)c1", "glutathione-S-transferase (GST) tagged LXRbeta LBD (ligand binding domain) (Homo sapiens)", "LXR beta Activity @ max dose (%)", 53],
  ["CNC(=O)c1ccc(N2CCC(CC3CCN(C(=O)[C@](O)(c4cccc(OC)c4)C(F)(F)F)CC3)CC2)cc1Cl", "glutathione-S-transferase (GST) tagged LXRbeta LBD (ligand binding domain) (Homo sapiens)", "LXR beta Activity @ max dose (%)", 60],
  ["CN(C)C(=O)c1ccc(N2CCC(CC3CCN(C(=O)[C@](O)(c4cccc(Cl)c4)C(F)(F)F)CC3)CC2)cc1", "glutathione-S-transferase (GST) tagged LXRbeta LBD (ligand binding domain) (Homo sapiens)", "LXR beta Activity @ max dose (%)", 64],
  ["CN(C)C(=O)c1ccc(N2CCC(CC3CCN(C(=O)[C@](O)(c4ccccc4)C(F)(F)C(F)(F)F)CC3)CC2)cc1Cl [Example 2-14]", "glutathione-S-transferase (GST) tagged LXRbeta LBD (ligand binding domain) (Homo sapiens)", "LXR beta Activity @ max dose (%)", 89],
  ["CN(C)C(=O)c1ccc(N2CCC(CC3CCN(C(=O)[C@](O)(c4ccccc4)C(F)(F)F)CC3)CC2)cc1Cl", "glutathione-S-transferase (GST) tagged LXRbeta LBD (ligand binding domain) (Homo sapiens)", "LXR beta Activity @ max dose (%)", 75]
]}

A. CNC(=O)c1ccc(N2CCC(CC3CCN(C(=O)C(O)(c4cccc(Cl)c4)C(F)(F)F)CC3)CC2)cc1Cl (centres unmarked)
B. CN(C)C(=O)c1ccc(N2CCC(CC3CCN(C(=O)[C@](O)(c4cc(Cl)cc(Cl)c4)C(F)(F)F)CC3)CC2)cc1
Exam item: Please let me know which one, A or B , has a lower measured LXR beta Activity @ max dose (%) value. # respond with the chosen item's label
Marked response: B
(B: 60%, A: 90%)

---

- study target: glutathione-S-transferase (GST) tagged LXRalpha LBD (ligand binding domain) (Homo sapiens, UniProt Q13133)
- Construct: purchased Invitrogen pv4655
- Sequence (Q13133 209-447 limits assumed): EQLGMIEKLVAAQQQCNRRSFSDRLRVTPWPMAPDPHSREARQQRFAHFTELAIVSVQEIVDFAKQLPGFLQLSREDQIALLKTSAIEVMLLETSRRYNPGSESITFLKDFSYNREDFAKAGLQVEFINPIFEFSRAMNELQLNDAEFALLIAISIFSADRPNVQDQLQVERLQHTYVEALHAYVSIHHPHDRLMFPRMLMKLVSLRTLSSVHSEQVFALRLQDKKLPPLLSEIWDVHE
- protocol text: LanthaScreen TR-FRET Liver X Receptor Coactivator Assay, co-activator recruitment to LXRalpha LBD
- Format: biochemical
- condition label: potency (Inflection Point, IP), co-activator recruitment to LXRalpha LBD, in relation to T0901317; read-out: LXR alpha IP
pEC50: −log10 of the molar value.
measurement name: pEC50

{"columns": ["compound", "pEC50"],
 "data": [
  ["COCCN(C)C(=O)c1ccc(N2CCC(CC3CCN(C(=O)[C@](O)(c4ccccc4)C(F)(F)F)CC3)CC2)cc1Cl", 6.71],
  ["CN(Cc1ccon1)C(=O)c1ccc(N2CCC(OC3CCN(C(=O)[C@](O)(c4ccccc4)C(F)(F)F)CC3)CC2)cc1Cl", 5.89],
  ["CN(C)C(=O)c1ccc(N2CCC(OC3CCN(C(=O)[C@](O)(c4cc(Cl)cc(Cl)c4)C(F)(F)F)CC3)CC2)cc1Cl", 6.67],
  ["Cc1cc(N2CCC(CC3CCN(C(=O)[C@](O)(c4cc(F)cc(Cl)c4)C(F)(F)F)CC3)CC2)ccc1C(=O)N(C)C", 6.91],
  ["CN(C)C(=O)c1ccc(N2CCC(OC3CCN(C(=O)[C@](O)(c4ccccc4)C(F)(F)C(F)(F)F)CC3)CC2)cc1Cl", 6.05]
]}

I. CNC(=O)c1ccc(N2CCC(CC3CCN(C(=O)[C@](O)(c4ccccc4)C(F)(F)C(F)(F)F)CC3)CC2)nc1Cl
II. CNC(=O)c1ccc(N2CCC(OC3CCN(C(=O)C(O)(c4cccc(C)c4)C(F)(F)F)CC3)CC2)cc1Cl (stereo not shown)
III. CN(C)C(=O)c1ccc(N2CCC(CC3CCN(C(=O)[C@](N)(c4ccccc4)C(F)(F)F)CC3)CC2)cc1Cl (stereo in doubt)
Exam item: Ranking field: pEC50; order: falling. Put the labels in the requested order and write them down.
Marked response: I, III, II
(I: 6.43, III: 5.75, II: 5.49)

P. O=C(c1ccc(N2CCC(CC3CCN(C(=O)[C@](O)(c4ccccc4)C(F)(F)F)CC3)CC2)cc1Cl)N1CCC[C@H]1CO
Q. CN(C)C(=O)c1ccc(N2CCC(CC3CCN(C(=O)[C@](O)(c4ccccc4F)C(F)(F)F)CC3)CC2)cc1Cl
R. CN(C)C(=O)c1ccc(N2CCC(CC3CCN(C(=O)[C@](N)(c4ccccc4)C(F)(F)F)CC3)CC2)nc1Cl
S. CN(C)C(=O)c1ccc(N2CCC(CC3CCN(C(=O)[C@](N)(c4cc(Cl)cc(Cl)c4)C(F)(F)F)CC3)CC2)cc1Cl
Exam item: Ranking field: pEC50; order: falling. Put the labels in the requested order and write them down.
Marked response: P, Q, S, R
(P: 7.30, Q: 6.26, S: 6.00, R: 5.76)
